- Tested on: MS2 coat protein
- runDescription: apparent KD of MS2 coat protein; designed switch direction (-1 OFF switch, 1 ON switch): -1; higher = weaker reporter binding
- runConditions: input ligand: FMN 200 uM
Listed here are sequences together with their documented apparent KD of MS2 coat protein.
Value expressed in nM; do not type the unit.

sequenceContent | apparent KD of MS2 coat protein [nM]
UUUAGUUCAGGAUAUGUAGAUUUUAACAUGAGGAUCACCCAUGUGGAUCCUGAAUUAACUACAGAAGGGAACAUUU [Mod of Brourd 3 - Jieux - Exclusion 5] (Eterna round: R97, puzzle: Exclusion 5) | 294
AAAUGUGCGAGAGGAUAUCGUGUACAAAGUACACGAGAAGGCUUCACAUGAGGAUCACCCAUGUACCGAGGUGAAACACCUUGA [Omei Exc(NG)1 Bv4] (Eterna round: R96, puzzle: Exclusion NG 1) | 599

Request: Fill blank: measured apparent KD of MS2 coat protein of the sequence GCACGAAGUGUAGGAUAUCUGUGCGAUUAGCUCAGAGAAGGACACAUGAGGAUCACCCAUGUGUUCCGCGGAAGCAAAACGUGC [Eli exng1 - 056] (Eterna round: R96, puzzle: Exclusion NG 1) is ____.
Response: 11.2

Request: # iterate: UACAUGAGGAUCACCCAUGUUUUGUCGUGUAUGGUAUUUAUCUAGGAUAUCAUUUAAUUUAUUUAUGAGAAGGAGAAUAUUAAU [JMF's solution 99] (Eterna round: R96, puzzle: Exclusion NG 3)
Response: 29.8

Request: Same for GUGCAGCUAGGAUAUACCGAAUGGGCCGAGCCGAAAAUAUUACAUGAGGAUCACCCAUGUAGAAGGAGCCAAUU [Eternabot (Original) Solution 22] (Eterna round: R97, puzzle: Exclusion 2)
Response: 64.5

Request: Further, for GCAGCUAGUUCAGGAUAUCAGCACGAUUAGUGCUGAGAAGGGAACAUGAGGAUCACCCAUGUGAUCAAUGCUGCAAUUUUAAUU [ENG1/12-A1] (Eterna round: R96, puzzle: Exclusion NG 1) ?
Response: 481

* * *

- Test system: MS2 coat protein
- runDescription: apparent KD of MS2 coat protein, switch OFF state (with FMN for OFF switches, without FMN for ON switches); designed switch direction (-1 OFF switch, 1 ON switch): -1; higher = weaker reporter binding
- runConditions: FMN input: 0 or 200 uM; Eterna round: R93 (includes R88 designs)
assayEndpoint: apparent KD of MS2 coat protein (µM)
Lab book: enter the figure in µM, no units written.

Solved cases below.
sequenceContent | observed
CAUAGGCGAGGAUAUACAUGAGGAUCACCCAUGUAAGGAAACCUGGCAGACUCAGAAUGUAGAAGGCGCACUGA [Ex3_Neo] | 0.0325
AAGGGACAUGAGGAUCACCCAUGUUAGGAUAUGCAAAUAACAAACAACAAACAACAAAGCAGAAGGGACAAAAA [Mat - Exclusion 1 - Eli mod - D54] | 0.0293
AAAAAGUCAGGAUAUACGUAAGUGCGAAAGCACAAAUGGAAACAUGAGGAUCACCCAUGUAGAAGGGACAAGAA [JL In the Red 02 (Mod)] | 0.0236

Request: Could you tell me which apparent KD of MS2 coat protein is on file for AAAACUCGAGGAUAUACGAACAUGUCAAAAGACGUGAAGGGACAUGAGGAUCACCCAUGUAGAAGGCGAGAAAA [Mat - Exclusion 2 - JL-Eli mod - D45] ?
Response: 0.123

Request: Try the sequence GCUUGUGAAGGAUAUACAUGAGGAUCACCCAUGUGAGAGAAAAAAGUGAGAAAGAAAAGUAGAAGGUCGUGAGG [salish99-ex3-79]
Response: 0.037

Request: Same question, AAAAAACAUGAGGAUCACCCAUGUGAGGAUAUGCAAAACCCAAAUAAAAAGAGAAAAAGCAGAAGGCACAAAAA [wbt round 1 mod 2] this time
Response: 0.0303

Request: Cool, now GUGAAGGAAGGAUAUACAAAGGGACGUUAUAAGAGAAGAAGACAUGAGGAUCACCCAUGUAGAAGGUCCAGAUC [Beorteesri]
Response: 0.0435

Request: Subsequent entry: AGAAAACAUGAGGAUCACCCAUGUAAGGAUAUGCUGAAAAACACGGAAAAAACGUGCAGCAGAAGGUACAAAAA [Mat - Exclusion 1 - Eli mod - D97]
Response: 0.0386

Request: Okay, and AAUAACCGAGGAUAUACAAAACCUGUGAUCUAGUGGAUUUUACAUGAGGAUCACCCAUGUAGAAGGCGGACAAG [Atdiiste] ?
Response: 0.183

Request: Please do the same for AGGUUGUCAGGAUAUGCGUGAAGAAUAAAACAAAUAACAACGCAGAAGGGACAUGAGGAUCACCCAUGUAACCA [May 53] as well.
Response: 0.0272

* * *

Measured apparent KD of MS2 coat protein of individual entries
- System: MS2 coat protein
- runDescription: apparent KD of MS2 coat protein; designed switch direction (-1 OFF switch, 1 ON switch): -1; higher = weaker reporter binding
- runConditions: input ligand: FMN 200 uM
# value in µM; strip the unit string

Request: Quick one: apparent KD of MS2 coat protein for UAUUAGCAAGCGAGUGGGUACAUGAGGAUCACCCAUGUGCUCGUCUUAUAAGGUACUGUGACGAAAGUCACGGUACC [Eli 91 v33] (Eterna round: R97, puzzle: Sensor, turn-off variant 1) ?
Response: 0.0161

Request: Please do the same for UCUCGUAGGCAAGGAUAUCCUACAUUGUUCUGGCCCGGGCAUGCUACAUGAGGAUCACCCAUGUGGGAGAAGGUGCGCCACUGC [Design 27] (Eterna round: R96, puzzle: Exclusion NG 2) as well.
Response: 0.0524

Request: Proceed to AAAUUCAGAGGAUAUGCGCAUAGAUAAGACUUUUUUUUUUAACAUGAGGAUCACCCAUGUAGAAGGCUGUAAAU [Ex2 #52] (Eterna round: R97, puzzle: Exclusion 2)
Response: 0.024

Request: And then AGUACUAUCACGAAAGUGUUAGUACAAUAAGCUUGUGAAACAUGAGGAUCACCCAUGUCCUCAUAAGCUCGUCUUAU [salish99_TOv2_r3_019] (Eterna round: R96, puzzle: Sensor v3, turn-off variant 2) , what is it?
Response: 0.0158

* * *

- System: K4 kissing-loop RNA reporter;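 also: bound reporter read as fluorescence of individual clusters on recovered sequencing chips by microscopy, with normalized cluster intensities fitted with a binding model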
- runDescription: apparent KD of K4 kissing-loop reporter; higher = weaker reporter binding
- runConditions: Eterna round: R107; input ligand: FMN 200 uM
assayEndpoint: apparent KD of K4 kissing-loop reporter (nM)
Give the value in nM but do not write nM after it.

sequenceContent | uom | observed
GUACCUUGGAAACAAGGACCGCUAACCGAAGGAGCGCGUGAAAACGCAGGUAGGUCGCGGUAGCGGAGUGAUGUUCCGCGAGAGG [Excluson Arginine A GF 14] | nM | 166
AGUUCUUGCCGAAGGAGCGAGGCAGAGUGAUGUUCUGCACGAGGUCGAAAGACCUCGCUGCCUCAGGUAGGUCGCGGCAUGAACA [Omei KL Arginine B Exc A v2] | nM | 897
UAGUCCUAGUGAUCCUUAUCAAGUGGUGGGCGAGGACCGGUACGGCCGCCACUCGAAUAUGCAGUGAUGUUGUAAUCCGGAUAAU [Exclusion - Tryptophan A (Freestyle 10)] | nM | 596
GCCUUUGUACAGUCCGUUUGUCAUGUGGAUACCAGCAGGAUAGCUUGCCCUUGGCAGCCAUCCAUUUAAUGUAGUGAUGUUACGC [theeternabot_exclusion_KL_Theo_A_13] | nM | 398
GCCGUACGCAUGGAUACCAGCAUUUAUGACACACUGCUAGUGAUGUUAGCUAUGCGUAUAUGCCCUUGGCAGCCAUGCGUACGGC | nM | 150

Now examine the next entry.
Request: What does the data say about its apparent KD of K4 kissing-loop reporter? Entry: UUAUACUCAUGUAAAGAACUAGUAACCGAAGGAGCGACAUAAAAGUCAGGUAGGUCGCGGAUUUCUCAGUGAUGUUGAGAGCAUU [JR_SSArginiA_Sub012]
Response: 109

* * *

- Test system: MS2 coat protein
- runDescription: apparent KD of MS2 coat protein; designed switch direction (-1 OFF switch, 1 ON switch): -1; higher = weaker reporter binding
- runConditions: input ligand: FMN 200 uM
assayEndpoint: apparent KD of MS2 coat protein (nM)
Please reply with the bare figure in nM and do not write the unit itself.

In the examples that follow, each entry is paired with its recorded apparent KD of MS2 coat protein.
sequenceContent | measuredOn | apparent KD of MS2 coat protein / nM
AUAAUGUGAGGAUAUCAGUCGACUAGCCUCGGCUAGUCGACUGAGAAGGCACAUGAGGAUCACCCAUGUAGAUC [E4/17-A2] (Eterna round: R97, puzzle: Exclusion 4) | MS2 coat protein | 75.8
AGCCGUCUAGGAUAUACAUAAGAUCGGCAGUCUCCGUCGAGACAUGAGGAUCACCCAUGUAGAAGGAGGCGGGA [EX2 A.22] (Eterna round: R97, puzzle: Exclusion 2) | MS2 coat protein | 208
UGAGUGCUGCGAGGAUAUACAUGAGGAUCACCCAUGUAAUCGUGUGAGGCUAUGCCUCACACGAAGUAGAAGGCGCAGUACUCU [Mat - Exclusion NG 2 - Mod of JL - D16] (Eterna round: R96, puzzle: Exclusion NG 2) | MS2 coat protein | 9.98
AGUGUGUGGCAGGAUAUGCUGUUGAUUGGUGGAGCAGAAGGGUCUACAUGAGGAUCACCCAUGUAAGCGGUUGA [Ex6 #30] (Eterna round: R97, puzzle: Exclusion 6) | MS2 coat protein | 125

Turning to the following sequence.
Request: Requested read-out: apparent KD of MS2 coat protein. Entry: AACACUGUAGGAUAUCAUGAACUGGACUUGAGGAUCACCCAAGUGUAUCGUGGAGUGCCGUGAGAAGGACGGAUUA [Erleen] (Eterna round: R97, puzzle: Exclusion 5)
Response: 28.1

Reference source for all entries: the supplement of paper PMC9170038
